Hey, just so you know, these numbers are from paper PMC10510246.

System: glioma (C6) cells
PROCEDURE_SUMMARY: Sulforhodamine B (SRB) cell growth inhibition assay, C6
Format: cell-based
REPORTED_CONDITIONS: C6, SRB, 72 h; value (95% confidence interval); listed as compound 2; read-out: IC50 (maximum 50% inhibitory concentration of cell growth)
RESULT_TYPE: IC50

mol=O=C1C=C(OCc2cn(-c3ccccc3)nn2)C(=O)c2ccccc21 result="> 14 µM"

----------
Test system: lung adenocarcinoma (A549) cells
PROCEDURE_SUMMARY: Sulforhodamine B (SRB) cell growth inhibition assay, A549
Type: cell-based
REPORTED_CONDITIONS: Homo sapiens, A549, 72 h, A549, SRB, 72 h; value (95% confidence interval); read-out: IC50 (maximum 50% inhibitory concentration of cell growth)
Method: The cell lines of lung adenocarcinoma (A549), melanoma (B16-F10) and glioma (C6) were purchased from the Federal University of Rio de Janeiro. […] The pellet formed was resuspended in culture medium and the cells were counted in a Neubauer chamber to carry out the experiments. For this experiment, A549, B16-F10 and C6 cells were seeded in 96-well plates at a density of 1 × 10^4 cells/well. […] The reading was made in a spectrophotometer (Biotek—H1 Synergy) with a wavelength of 510 nm. […]
Known IC50 of a selection of compounds
RESULT_TYPE: IC50

compound=O=C1C=C(OCc2cn(-c3ccccc3)nn2)C(=O)c2ccccc21 result="> 14 µM"
compound="O=C1C=C(O)C(=O)c2ccccc21 [Lawsone, 2-hydroxy-1,4-naphtoquinone]" result="53 µM"
compound=C#CCOC1=CC(=O)c2ccccc2C1=O result="< 2.5 µM"

----------
PROCEDURE_SUMMARY: Hemolytic assay
Format: cell-based, human
REPORTED_CONDITIONS: human erythrocytes (2% suspension); human erythrocytes, 110 µM, 1 h; read-out: hemolysis percentage
RESULT_TYPE: hemolysis at 1 h, 110 µM

mol=C#CCOC1=CC(=O)c2ccccc2C1=O result="< 0.5%"
